tested on: Staphylococcus aureus 101; test: MIC against Staphylococcus aureus 101; format: cell-based; settings: Table 2; Staphylococcus aureus 101, MRSA- and trimethoprim-resistant; clinical isolate; read-out: MIC Sa101
property.label: MIC (µg/mL)
Numeric only. Scale: µg/mL

Problem: Identify measured MIC corresponding to CCOc1cc(Cc2cnc(N)nc2N)cc(OCC)c1-c1ccc(OCC(N)=O)cc1 [Example 46-]
Result: 8

Problem: Identify measured MIC corresponding to CCOc1cc(Cc2cnc(N)nc2N)cc(OCC(C)C)c1-c1ccc(O)cc1 [Example 08-n]
Result: 4

Problem: Identify measured MIC corresponding to CCOc1cc(Cc2cnc(N)nc2N)cc(OCC)c1-c1ccco1 [Example 02-o]
Result: 4

Problem: Identify measured MIC corresponding to CCOc1cc(Cc2cnc(N)nc2N)cc(OCC)c1-c1ccc(CNCC(F)(F)F)cc1 [Example 04-v]
Result: 8

Problem: Identify measured MIC corresponding to CCOc1cc(Cc2cnc(N)nc2N)cc(OC2CCC2)c1-c1cccc(N)c1 [Example 07-e]
Result: 4

* * *

Molecular target: purified DHFR of strain Sp1/1 of Streptococcus pneumoniae (Streptococcus pneumoniae serotype 4, UniProt Q54801)
Sequence (Q54801 1-168 I100L): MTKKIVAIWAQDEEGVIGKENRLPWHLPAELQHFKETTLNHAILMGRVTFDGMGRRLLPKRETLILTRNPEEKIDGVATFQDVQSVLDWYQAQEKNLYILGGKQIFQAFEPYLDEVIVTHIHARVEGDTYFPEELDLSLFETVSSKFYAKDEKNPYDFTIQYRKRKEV
Format: biochemical
Conditions: Table 2; IC50 against purified DHFR of strain Sp1/1
I'd be grateful if you could share measured IC50 for these entries.
Give the number first and the unit second.

Problem: Identify measured IC50 corresponding to CCOc1cc(Cc2cnc(N)nc2N)cc(OCC)c1-c1ccc(SC)nc1 [Example 03-e]
Result: 80 nM

Problem: Identify measured IC50 corresponding to CCOc1cc(Cc2cnc(N)nc2N)cc(OCC2(CC#N)CC2)c1-c1ccc(O)cc1 [Example 08-c]
Result: 24 nM

Problem: Identify measured IC50 corresponding to CCOc1cc(Cc2cnc(N)nc2N)cc(OCC(C)(C)C=CC#N)c1-c1cccc(N)c1 [Example 07-f]
Result: 55 nM

Problem: Identify measured IC50 corresponding to CCOc1cc(Cc2cnc(N)nc2N)cc(OS(=O)(=O)N(C)C2CC2)c1-c1cccc(N)c1 [Example 19-g]
Result: 6.8 nM

Problem: Identify measured IC50 corresponding to CCCS(=O)(=O)Oc1cc(Cc2cnc(N)nc2N)cc(OCC)c1-c1ccc(O)cc1 [Example 15-d]
Result: 18 nM

Problem: Identify measured IC50 corresponding to CCOc1cc(Cc2cnc(N)nc2N)cc(OCC)c1-c1ccc(CNCC(F)(F)F)cc1 [Example 04-v]
Result: 150 nM

Problem: Identify measured IC50 corresponding to CCCOc1cc(Cc2cnc(N)nc2N)cc(OCCC)c1-c1cccc(N)c1 [Example 51-]
Result: 43 nM

Problem: Identify measured IC50 corresponding to CCOc1cc(Cc2cnc(N)nc2N)cc(OCC)c1-c1ccc2c(c1)CCCN2 [Example 49-]
Result: 46 nM

Problem: Identify measured IC50 corresponding to CCOc1cc(Cc2cnc(N)nc2N)cc(OS(=O)(=O)N2CCCC2)c1-c1cccc(N)c1 [Example 19-c]
Result: 19 nM

Problem: Identify measured IC50 corresponding to CCOc1cc(Cc2cnc(N)nc2N)cc(OCC)c1-c1cc(C)nc(C)c1 [Example 03-d]
Result: 340 nM

Problem: Identify measured IC50 corresponding to CCOc1cc(Cc2cnc(N)nc2N)cc(OS(C)(=O)=O)c1-c1ccc2c(c1)OCO2 [Example 17-a]
Result: 38 nM

Problem: Identify measured IC50 corresponding to CCOc1cc(Cc2cnc(N)nc2N)cc(OC2CCC2)c1-c1ccc2c(c1)OCO2 [Example 10-e]
Result: 50 nM

Problem: Identify measured IC50 corresponding to CCOc1cc(Cc2cnc(N)nc2N)cc(OCC)c1-c1cccc(NC(C)=O)c1 [Example 05-c]
Result: 30 nM

Problem: Identify measured IC50 corresponding to CCOc1cc(Cc2cnc(N)nc2N)cc(OCC2(/C=C/C#N)CC2)c1-c1ccc(O)cc1 [Example 08-d]
Result: 16 nM

Problem: Identify measured IC50 corresponding to CCOc1cc(Cc2cnc(N)nc2N)cc(OCC)c1-c1ccc(S(C)(=O)=O)cc1 [Example 02-i]
Result: 100 nM

Problem: Identify measured IC50 corresponding to CCOc1cc(Cc2cnc(N)nc2N)cc(OCC)c1-c1ccc(N)c(OC)c1 [Example 04-l]
Result: 82 nM

Problem: Identify measured IC50 corresponding to CCOc1cc(Cc2cnc(N)nc2N)cc(OCC2(CCC#N)CC2)c1-c1ccc(O)cc1 [Example 47-]
Result: 10 nM

Problem: Identify measured IC50 corresponding to CCOc1cc(Cc2cnc(N)nc2N)cc(OS(=O)(=O)N(C)C)c1-c1ccc(N)c(F)c1 [Example 28-a]
Result: 5.8 nM

Problem: Identify measured IC50 corresponding to CCOc1cc(Cc2cnc(N)nc2N)cc(OS(=O)(=O)C2CC2)c1-c1cc(N)cc(F)c1 [Example 34-c]
Result: 3.4 nM

Problem: Identify measured IC50 corresponding to CCOc1cc(Cc2cnc(N)nc2N)cc(OS(=O)(=O)N2CCOCC2)c1-c1ccc(O)cc1 [Example 20-d]
Result: 5.8 nM

Problem: Identify measured IC50 corresponding to CCOc1cc(Cc2cnc(N)nc2N)cc(OCC)c1-c1ccc(COCC(=O)N2CCCCC2)s1 [Example 03-c]
Result: 11 nM

Problem: Identify measured IC50 corresponding to CCOc1cc(Cc2cnc(N)nc2N)cc(OCC2CC2)c1-c1ccc(O)cc1 [Example 08-h]
Result: 11 nM

Problem: Identify measured IC50 corresponding to CCOc1cc(Cc2cnc(N)nc2N)cc(OCC)c1-c1ccc(NS(C)(=O)=O)cc1 [Example 04-b]
Result: 36 nM

Problem: Identify measured IC50 corresponding to CCOc1cc(Cc2cnc(N)nc2N)cc(OS(=O)(=O)N(C)CC)c1-c1ccc(CN2CCOCC2)c(N)c1 [Example 30-c]
Result: 16 nM

Problem: Identify measured IC50 corresponding to CCCS(=O)(=O)Oc1cc(Cc2cnc(N)nc2N)cc(OCC)c1-c1ccc(OC)c(N)c1 [Example 32-d]
Result: 5.9 nM

Problem: Identify measured IC50 corresponding to CCOc1cc(Cc2cnc(N)nc2N)cc(OCC)c1-c1ccc(C#N)cc1 [Example 04-a]
Result: 82 nM

Problem: Identify measured IC50 corresponding to CCOc1cc(Cc2cnc(N)nc2N)cc(OS(=O)(=O)N(C)C)c1-c1ccc(CN2CCOCC2)cc1 [Example 65-]
Result: 24 nM

Problem: Identify measured IC50 corresponding to CCOc1cc(Cc2cnc(N)nc2N)cc(OCC)c1-c1ccc2[nH]ncc2c1 [Example 02-g]
Result: 12 nM

Problem: Identify measured IC50 corresponding to CCOc1cc(Cc2cnc(N)nc2N)cc(OS(=O)(=O)C(C)C)c1-c1ccc(OC)cc1 [Example 16-c]
Result: 18 nM

Problem: Identify measured IC50 corresponding to CCOc1cc(Cc2cnc(N)nc2N)cc(OCC)c1-c1cnc(N2CCOCC2)nc1 [Example 04-k]
Result: 95 nM

Problem: Identify measured IC50 corresponding to CCCS(=O)(=O)Oc1cc(Cc2cnc(N)nc2N)cc(OCC)c1-c1ccc(N)c(F)c1 [Example 32-e]
Result: 6.8 nM

Problem: Identify measured IC50 corresponding to CCOc1cc(Cc2cnc(N)nc2N)cc(OS(=O)(=O)N(C)CC)c1-c1cccc(N)c1 [Example 19-f]
Result: 6.2 nM

Problem: Identify measured IC50 corresponding to CCOc1cc(Cc2cnc(N)nc2N)cc(OS(=O)(=O)N(C)CC)c1-c1ccc(C)c(N)c1 [Example 31-b]
Result: 4.4 nM

* * *

molecular target: purified DHFR of strain 157/4696 of Staphylococcus aureus (Staphylococcus aureus, UniProt P13955); test: biochemical
Sequence (P13955 whole entry): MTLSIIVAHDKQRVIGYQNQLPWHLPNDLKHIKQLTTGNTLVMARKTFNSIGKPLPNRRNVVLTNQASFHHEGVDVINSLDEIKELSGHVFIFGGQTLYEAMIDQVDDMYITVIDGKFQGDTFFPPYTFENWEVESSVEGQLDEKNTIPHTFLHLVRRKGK
property.label: log10 IC50 (log10 of the value in nM)
Heads up: the numbers are on a log10 scale; they represent IC50 in nM.

Problem: Identify measured log10 IC50 corresponding to `CCOc1cc(Cc2cnc(N)nc2N)cc(OS(=O)(=O)N(CC)CC)c1-c1cccc(N)c1`
Result: 2.20

Problem: Identify measured log10 IC50 corresponding to `CCOc1cc(Cc2cnc(N)nc2N)cc(OCC)c1-c1ccc(CNCC(F)(F)F)cc1`
Result: 3.11

Problem: Identify measured log10 IC50 corresponding to CCOc1cc(Cc2cnc(N)nc2N)cc(OC2CCC(C#N)C2)c1-c1ccc(O)cc1 (stereo not shown)
Result: 3.15

Problem: Identify measured log10 IC50 corresponding to CCOc1cc(Cc2cnc(N)nc2N)cc(OS(=O)(=O)C(C)C)c1-c1cccc(N)c1 [Example 14c]
Result: 1.79

Problem: Identify measured log10 IC50 corresponding to `CCOc1cc(Cc2cnc(N)nc2N)cc(OCC)c1-c1ccc(CNCCF)cc1`
Result: 3.26

Problem: Identify measured log10 IC50 corresponding to `CCOc1cc(Cc2cnc(N)nc2N)cc(OS(=O)(=O)N(C)C(C)C)c1-c1cccc(N)c1`
Result: 1.74

Problem: Identify measured log10 IC50 corresponding to `CCOc1cc(Cc2cnc(N)nc2N)cc(OCC)c1-c1ccc(O)c(C)c1`
Result: 3.34

Problem: Identify measured log10 IC50 corresponding to `CCOc1cc(Cc2cnc(N)nc2N)cc(OS(=O)(=O)C(C)C)c1-c1ccc(OC)c(N)c1`
Result: 1.81

Problem: Identify measured log10 IC50 corresponding to `CCOc1cc(Cc2cnc(N)nc2N)cc(OS(=O)(=O)N(C)C2CC2)c1-c1ccc(O)cc1`
Result: 2.15

Problem: Identify measured log10 IC50 corresponding to `CCOc1cc(Cc2cnc(N)nc2N)cc(OS(=O)(=O)N(C)C)c1-c1ccc(S(C)(=O)=O)cc1`
Result: 2.45

Problem: Identify measured log10 IC50 corresponding to `CCOc1cc(Cc2cnc(N)nc2N)cc(OS(=O)(=O)CC(C)C)c1-c1ccc(N)cc1`
Result: 2.38

Problem: Identify measured log10 IC50 corresponding to `CCOc1cc(Cc2cnc(N)nc2N)cc(OCC)c1-c1ccc(CN2CCOCC2)s1`
Result: 2.81

Problem: Identify measured log10 IC50 corresponding to `CCOc1cc(Cc2cnc(N)nc2N)cc(OS(=O)(=O)N(CC)CC)c1-c1ccc(N)cc1`
Result: 2.18

Problem: Identify measured log10 IC50 corresponding to CCOc1cc(Cc2cnc(N)nc2N)cc(OS(=O)(=O)C(C)CC)c1-c1ccc(N)c(F)c1 (stereo not shown)
Result: 2.11

Problem: Identify measured log10 IC50 corresponding to `CCOc1cc(Cc2cnc(N)nc2N)cc(OS(=O)(=O)N(C)C)c1-c1ccc(NC)cc1`
Result: 2.11

Problem: Identify measured log10 IC50 corresponding to `CCOc1cc(Cc2cnc(N)nc2N)cc(OCC)c1-c1cccc([N+](=O)[O-])c1`
Result: 3.20

The values you see were collected from patent US6821980B1.
